Hey, just so you know, these numbers are from ChEMBL document CHEMBL4346669.

tested on: A549; assay: Antiproliferative activity against human A549 cells assessed as reduction in cell viability measured after 72 hrs by MTT assay; type: functional, cell-based; conditions: Homo sapiens, A549, 72 h; read-out: IC50
observable: IC50 (nM)
Unit nM implied. Number only.

Task: What value of measured IC50 is listed for `CO[C@@H]1C/C=C(\C)C(=O)N(C)[C@@H](C(C)C)C(=O)N[C@H](Cc2ccc(O)cc2)C(=O)N[C@@H](C(C)C)C(=O)O[C@H](c2ccccc2)[C@H](C)/C=C/C=C/1C` ?
Result: 35.9

Task: What value of measured IC50 is listed for `CC[C@H](C)[C@H]1C(=O)N[C@H](Cc2ccccc2)C(=O)N[C@@H](C(C)(C)O)C(=O)O[C@H](c2ccccc2)[C@H](C)/C=C/C=C(\C)[C@H](OC)C[C@@H]2O[C@@]2(C)C(=O)N1C` ?
Result: 14.3

----------
system: A549; assay: Antiproliferative activity against human A549 cells assessed as reduction in cell viability measured after 72 hrs by MTT assay; format: functional, cell-based; conditions: Homo sapiens, A549, 72 h; read-out: IC50
Would you kindly list pIC50 for each of these compounds?
Keep in mind that pIC50 stands for -log10 of concentration in molar terms.

Task: What value of measured pIC50 is listed for `CO[C@@H]1C[C@@H]2O[C@@]2(C)C(=O)N(C)[C@@H](C(C)C)C(=O)N[C@H](Cc2cc(Cl)c(O)c(Cl)c2)C(=O)N[C@@H](C(C)(C)O)C(=O)O[C@H](c2ccccc2)[C@H](C)/C=C/C=C/1C` ?
Result: 8.46

Task: What value of measured pIC50 is listed for `CC[C@H](C)[C@H]1C(=O)N[C@H](Cc2cc(Cl)c(O)c(Cl)c2)C(=O)N[C@@H](C(C)(C)O)C(=O)O[C@H](c2ccccc2)[C@H](C)/C=C/C=C(\C)[C@H](OC)C[C@@H]2O[C@@]2(C)C(=O)N1C` ?
Result: 7.88

----------
system: A549; test: Antiproliferative activity against human A549 cells assessed as reduction in cell viability measured after 72 hrs by MTT assay; assay type: functional, cell-based; settings: Homo sapiens, A549, 72 h; read-out: IC50
Would you kindly list pIC50 for each of these compounds?
Keep in mind that pIC50 stands for -log10 of concentration in molar terms.

Task: What value of measured pIC50 is listed for `CC[C@H](C)[C@H]1C(=O)N[C@H](Cc2ccc(O)c(OC)c2)C(=O)N[C@@H](C(C)(C)O)C(=O)O[C@H](c2ccccc2)[C@H](C)/C=C/C=C(\C)[C@H](OC)C[C@@H]2O[C@@]2(C)C(=O)N1C` ?
Result: 8.43

Task: What value of measured pIC50 is listed for `CC[C@H](C)[C@H]1C(=O)N[C@H](Cc2cc(Cl)c(O)c(Cl)c2)C(=O)N[C@@H](C(C)C)C(=O)O[C@H](c2ccccc2)[C@H](C)/C=C/C=C(\C)[C@H](OC)C[C@@H]2O[C@@]2(C)C(=O)N1C` ?
Result: 8.49

Task: What value of measured pIC50 is listed for `CC/C1=C\C=C\[C@@H](C)[C@@H](c2ccccc2)OC(=O)[C@H](C(C)C)NC(=O)[C@@H](Cc2cc(Cl)c(O)c(Cl)c2)NC(=O)[C@H](C(C)C)N(C)C(=O)/C(C)=C/C[C@H]1OC` ?
Result: 7.88
